method: growth inhibition, single agents and combos, HD-MB03, cell-based, BGB or cisplatin IC20 combos, synergistic combos for chromothripsis tumors (AID 1671455);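 further: 0% = vehicle DMSO and 100% = high DMSO as cytotoxic control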
settings: HD-MB03 medulloblastoma cells, measured here: combo with cisplatin at IC20, at 0.5 µM, stronger effect = higher value
assay-metric: inhibition (%)
Record the value in %, omitting the unit from your answer.

Could you share which inhibition value was measured for CC(C)C(=O)SCCCCCCC(=O)Nc1nc(-c2ccccc2)cs1 ?
11.7

Could you share which inhibition value was measured for O=C1N=c2ccccc2=C1c1c(O)[nH]c2ccccc12 ?
-18.7

Could you share which inhibition value was measured for CC(C)OC(=O)[C@H](C)NP(=O)(OC[C@H]1O[C@@H](n2ccc(=O)[nH]c2=O)C(C)(F)[C@@H]1O)Oc1ccccc1 (some centres undefined) ?
-4.66

Could you share which inhibition value was measured for CC(=O)C1(O)Cc2c(O)c3c(c(O)c2C(OC2CC(N)C(O)C(C)O2)C1)C(=O)c1ccccc1C3=O (centres undefined) ?
99.8

Could you share which inhibition value was measured for O=C(CCCCCCC(=O)NO)NO ?
-0.883

Could you share which inhibition value was measured for C#CCC(CCCCCC)C(=O)O (centres undefined) ?
2.13

Could you share which inhibition value was measured for O=c1cc(-c2ccc(O)cc2)[nH]c(=S)[nH]1 ?
-24.5

Could you share which inhibition value was measured for Nc1ccn(C2CCC(CO)O2)c(=O)n1 (centres undefined) ?
-16.6

Could you share which inhibition value was measured for Cc1c(Br)cc(NCC(=O)N/N=C/c2cc([N+](=O)[O-])ccc2O)cc1Br ?
-13.4

Could you share which inhibition value was measured for CCC(C)C(=O)OC1CC(C)C=C2C=CC(C)C(CCC3CC(O)CC(=O)O3)C21 (centres undefined) ?
26.8

Could you share which inhibition value was measured for O=C(O)c1cc2cccc([N+](=O)[O-])c2[nH]1 ?
1.4

Could you share which inhibition value was measured for COc1ccccc1S(=O)(=O)Nc1ccc2c(c1)CN(C)C(=O)N2 ?
-6.26

Could you share which inhibition value was measured for CCC1(O)C(=O)OCc2c1cc1n(c2=O)Cc2cc3cc(O)ccc3nc2-1 (centres undefined) ?
98.2

Could you share which inhibition value was measured for Cn1cc(-c2cnn3c(N)c(Br)c([C@H]4CCCNC4)nc23)cn1 ?
17.7

Could you share which inhibition value was measured for O=c1[nH]c(=O)n(C2CC(O)C(CO)O2)cc1I (centres undefined) ?
-7.71

Could you share which inhibition value was measured for Cc1cc(C=CC#N)cc(C)c1Nc1ccnc(Nc2ccc(C#N)cc2)n1 ?
-1.41

Could you share which inhibition value was measured for C[n+]1ccc(-c2c3nc(c(-c4cc[n+](C)cc4)c4ccc([nH]4)c(-c4cc[n+](C)cc4)c4nc(c(-c5cc[n+](C)cc5)c5ccc2[nH]5)C=C4)C=C3)cc1 ?
-12.4

Could you share which inhibition value was measured for CCC(Sc1nnc2c3ccccc3n(CC)c2n1)C(=O)Nc1ccccc1OC (centres undefined) ?
-12.1

Could you share which inhibition value was measured for O=c1ccn(C2CC(O)C(CO)O2)c(=O)[nH]1 (centres undefined) ?
-4.82

Could you share which inhibition value was measured for Nc1ncn(C2OC(CO)C(O)C2O)c(=O)n1 (centres undefined) ?
0.735

Could you share which inhibition value was measured for CON=C1CN(c2nc3c(cc2F)c(=O)c(C(=O)O)cn3C2CC2)CC1CN (centres undefined) ?
-12.2

Could you share which inhibition value was measured for CC(C=CC(=O)NO)=CC(C)C(=O)c1ccc(N(C)C)cc1 (centres undefined) ?
99.7

Could you share which inhibition value was measured for O=c1[nH]cnc2c1ncn2C1CCC(CO)O1 (centres undefined) ?
-5.27

Could you share which inhibition value was measured for CC(C)c1ccc(-c2cc(=O)c3ccccc3o2)cc1 ?
-4.48
